Each entry below carries its reported CC50.
# method description: in vitro
# condition set: dog
# number only, unit µM dropped from output

Before answering, review these 4 worked examples.
molecule	CC50 (µM)
Cc1nn(-c2ccc(Cl)cc2)c2nc(N)c(C#N)c(-c3ccc(O)c(O)c3)c12 [Compound 6]	24.5
COc1cc(-c2ccnc3c2c(C)nn3-c2cccc(C(F)(F)F)c2)ccc1O [Compound 33]	24.5
Cc1ccc(-n2nc(C)c3c(-c4ccc(O)c(O)c4)c(C#N)c(N)nc32)cc1C [Compound 4]	24.5
COc1cc(-c2ccnc3c2c(C)nn3-c2ccc(C(F)(F)F)cc2)ccc1O [Compound 32]	19.8

# next molecule below
COc1cc(-c2c(C#N)c(N)nc3c2c(C)nn3-c2ccc(F)cc2)ccc1O [Compound 10] yielded CC50 of 24.7

Source: paper PMC8290212
